Here, each record is paired with measured IC50 data.
Target: KMT9 (Homo sapiens)
Sequence (Q9Y5N5 1-214): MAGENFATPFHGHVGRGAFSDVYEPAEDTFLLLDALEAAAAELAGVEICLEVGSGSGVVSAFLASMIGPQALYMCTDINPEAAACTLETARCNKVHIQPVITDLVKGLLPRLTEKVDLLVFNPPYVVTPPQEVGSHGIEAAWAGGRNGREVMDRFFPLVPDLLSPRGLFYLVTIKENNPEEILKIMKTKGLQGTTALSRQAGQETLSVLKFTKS
Sequence (Q9UI30 1-120 isoform Q9UI30-2 partner): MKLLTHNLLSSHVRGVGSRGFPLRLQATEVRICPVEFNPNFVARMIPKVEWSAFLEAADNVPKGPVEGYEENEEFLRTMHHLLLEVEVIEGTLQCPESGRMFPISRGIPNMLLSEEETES
Assay: KMT9 methyltransferase inhibition assay, MTaseGlo luminescence (from entry 155)
Assay type: biochemical
Details: MTaseGlo procedure (entries from 155); 100 nM KMT9, 5 μM ETF1, 1 μM SAM; read-out: Inhibition (IC50)

Before answering, review these 6 worked examples.
In [3]: df
Out[3]:
                                   compound  assaymetric  reportedmeasurement
0  O[C@@H]1[C@H](O)C(CNCCCNCCc2ccc(F)cc2)C[C@H]1n1cc(-c2cccs2)c2cnc(Cl)nc21 (mixture of isomers)         IC50     1000 to 10000 nM
1  CC1CNCCC1[C@H]1C[C@@H](n2cc(-c3nc(Cc4ccccc4)cs3)c3c(N)ncnc32)[C@H](O)[C@@H]1O (stereo partly shown)         IC50     1000 to 10000 nM
2  COc1cc(OC)cc([C@H]2C[C@@H](n3cc(Br)c4c(N)nc(Cl)nc43)[C@H](O)[C@@H]2O)c1         IC50     1000 to 10000 nM
3  Nc1ncnc2c1ccn2[C@@H]1C[C@H]([C@H]2CCCN2)[C@@H](O)[C@H]1O         IC50           > 10000 nM
4  Nc1nc(Cl)nc2c1c(-c1nc(Cc3ccccc3)cs1)cn2[C@@H]1C[C@H](C2CCN(CCF)CC2)[C@@H](O)[C@H]1O         IC50       100 to 1000 nM
5  CN1CCC[C@@H]([C@H]2C[C@@H](n3cc(-c4nc(Cc5ccccc5)cs4)c4c(N)nc(Cl)nc43)[C@H](O)[C@@H]2O)C1 [Compound 597S]         IC50       100 to 1000 nM

From here, focus on the item given below.
Task: What measured IC50 goes with CNc1ncnc2c1ccn2[C@@H]1C[C@H](c2ccc(O)cc2)[C@@H](O)[C@H]1O ?
Output: > 10000 nM

* * *

Target: UniProt Q9Y5N5
Assay: KMT9 methyltransferase inhibition assay, 3H-SAM scintillation (entries 1-154)
Assay type: biochemical
Conditions: entries 1-154: 3H-SAM assay, 25 nM KMT9, 5 μM ETF1
pIC50: −log10 of the molar value.
Here, each record is paired with measured pIC50 data.

Before answering, review these 5 worked examples.
                                        mol  reportedmeasurement
0  Nc1ncnc2c1ncn2[C@@H]1O[C@H](C(=O)NCCCNCCc2ccc3ccccc3c2)[C@@H](O)[C@H]1O               < 5.00
1  CS(=O)(=O)n1ccc(-c2cn([C@@H]3C[C@H](CNCCCNCCc4ccccc4)[C@@H](O)[C@H]3O)c3ncnc(N)c23)n1               > 7.00
2  NC[C@H]1O[C@@H](n2cc3c4c(ncnc42)NCCC3)[C@H](O)[C@@H]1O               < 5.00
3  CNc1ncnc2c1ccn2[C@@H]1C[C@H](CNCCCNCCc2ccc3ccccc3c2)[C@@H](O)[C@H]1O               < 5.00
4  Nc1ncnc2c1c(Br)cn2[C@@H]1C[C@H](CNCCCNCCc2cccc(F)c2)[C@@H](O)[C@H]1O         6.00 to 7.00

Task: What measured pIC50 goes with CNc1ncnc2c1ccn2[C@@H]1C[C@H](C(=O)NCCCNCc2cccc(Oc3ccccc3)c2)[C@@H](O)[C@H]1O ?
Output: 5.00 to 6.00

Task: What do you have for O[C@@H]1[C@@H](CNCCCNCCc2ccccc2)C[C@@H](n2cc(-c3[nH]ncc3Cl)c3cncnc32)[C@@H]1O ?
Output: 5.00 to 6.00
